assay: Solubility of crystals in water; type: physicochemical; conditions: purity 99.0%, 25° C. water
Measured Parameter: solubility

compound="OC[C@H]1O[C@H](O[C@H]2[C@H](O)[C@@H](O)[C@@H](O[C@H]3[C@H](O)[C@@H](O)[C@@H](O[C@H]4O[C@H](CO)[C@@H](O[C@H]5O[C@H](CO)[C@@H](O[C@H]6O[C@H](CO)[C@@H](O)[C@H](O)[C@H]6O)[C@H](O)[C@H]5O)[C@H](O)[C@H]4O)O[C@@H]3CO)O[C@@H]2CO)[C@H](O)[C@@H](O)[C@@H]1O [maltotriosyl maltotrioside]" measured_parameter=solubility value_reported="~910 mg/mL"
